test system: BT-549 breast; assay: NCI tumour cell line growth inhibition, 48 h
Listing of entries alongside the reported log10 of TGI.
assay endpoint: log10 of TGI (log10 of the value in µM)

- compound: "COc1ccc(C2Oc3c(cccc3OC)C=C2[N+](=O)[O-])cc1OC (centres undefined)"
  observed result: 1.49
- compound: "Cc1cc(NC(=O)c2ccc(NS(=O)(=O)CCO)cc2N2CCC3(CC2)CC3)nc(N2CCC(F)(F)CC2)n1"
  observed result: 1.25
- compound: "O=C1c2ccccc2C(=O)c2c(OCC3CO3)ccc(OCC3CO3)c21 (centres undefined)"
  observed result: 1.19
- compound: "CCCCCCNC(=O)c1cc(NCc2cc(OC)ccc2OC)ccc1O"
  observed result: 1.52
- compound: "C[C@]12CC[C@@H]3c4ccc(OC(=O)c5ccccc5)cc4CC[C@H]3[C@@H]1CCC2OC(=O)c1cccc2c(=O)c3ccccc3[nH]c12 (some centres undefined)"
  observed result: 1.58
- compound: "O=C1C=C(Nc2ccccc2)c2ncccc2C1=O"
  observed result: 0.42
- compound: "Cc1cc(C)c2c(=O)cc(-c3ccc(Cl)cc3)[nH]c2n1"
  observed result: 2.00
- compound: "CCCCCCCC1c2cc3[nH]c(cc4nc(cc5[nH]c(cc(n2)[C@@]1(C)CC(=O)N(C)C)c(C)c5CCC(=O)O)C(CCC(=O)O)=C4C)cc3C (some centres undefined)"
  observed result: 1.46
- compound: "C/C(=C\\c1ccn(-c2ccc(N)c(C(F)(F)F)c2)n1)[C@@H]1C[C@@H]2O[C@]2(C)CCC[C@H](C)[C@H](O)[C@@H](C)C(=O)C(C)(C)[C@@H](O)CC(=O)O1"
  observed result: 1.50
- compound: "COc1cccc(-c2nn(-c3ccccc3)cc2-c2ccnc(NCCNS(=O)(=O)c3ccc(C(F)(F)F)cc3)c2)c1"
  observed result: 0.66
- compound: "COC1Cc2c(C)c(OC(C)=O)c3cccnc3c2O1 (centres undefined)"
  observed result: 1.62
- compound: "O=c1oc2ccc(Cl)cc2c(=O)n1-c1ccc(Cl)cc1F"
  observed result: 0.39
- compound: "COc1cc(N2CCC(N3CCN(C)CC3)CC2)ccc1Nc1ncc(Cl)c(Nc2ccccc2P(C)(C)=O)n1"
  observed result: 1.13
- compound: "NCCCNc1ccc2c(c1)[n+]([O-])c1ccccc1[n+]2[O-]"
  observed result: 1.81
- compound: "Nc1ncc(-c2cnn(C3CCNCC3)c2)cc1-c1nc2ccccc2o1"
  observed result: 1.01
- compound: "Oc1c(Br)cc(Br)cc1CN(Cc1cc(Br)cc(Br)c1O)C1CCCCC1"
  observed result: 1.96
- compound: "Nc1ccccc1NC(=O)c1ccc(CSc2nc(N3CCOCC3)c3cccn3n2)cc1"
  observed result: 0.66
- compound: "Cc1ccc(-c2csc(N(C(=O)N3CCN(c4cc5c(cc4F)c(=O)c(C(=O)O)cn5C4CC4)CC3)c3ccccc3)n2)cc1"
  observed result: 0.52

====

tested on: 786-0 renal; test: NCI tumour cell line growth inhibition, 48 h
The reader will find reported TGI values listed item by item below.
assay endpoint: TGI

- molecule: "Cc1cc(N(CCOS(C)(=O)=O)CCOS(C)(=O)=O)ccc1C=Nc1ccc(-c2csc(-c3ccccc3)n2)c(Cl)c1"
  test target: "786-0 renal"
  observed result: "17.7 µM"
- molecule: "CCOC(=O)/C(=C/c1ccc(OC)c(OC)c1)C(=O)c1ccccc1"
  test target: "786-0 renal"
  observed result: "> 100 µM"
- molecule: "CN1C(=O)n2c(nc3ccccc32)C(N=[N+]=[N-])(N=[N+]=[N-])C1=O (stereo not given)"
  test target: "786-0 renal"
  observed result: "> 100 µM"
- molecule: "COC(=O)/C=C\\c1ccc2c(c1)CC1(C2)Cc2ccc(/C=C/C(=O)OC)cc2C1 (stereo not given)"
  test target: "786-0 renal"
  observed result: "> 31.6 µM"
- molecule: "Oc1c(Br)cc(Br)cc1CN(Cc1cc(Br)cc(Br)c1O)C1CCCCC1"
  test target: "786-0 renal"
  observed result: "> 100 µM"

====

tested on: HOP-92 NSCLC; test: NCI tumour cell line growth inhibition, 48 h
// TGI lookup, one value per entry

- compound: "CS(=O)(=O)c1ccc(N/N=C/c2c(-c3ccc(S(C)(=O)=O)cc3)[nH]c3ccc(F)cc23)cc1"
  TGI: "> 50 µM"
- compound: "CC1CCCOc2ccc(cc2)C=Nc2ccc(cc2)CCc2ccc(cc2)N=Cc2ccc(cc2)OCCC1 (stereo not given)"
  TGI: "> 100 µM"
- compound: "COC(=O)c1cc(NC2OCC(OC(C)=O)C(OC(C)=O)C2OC(C)=O)nc(SC)c1C(=O)OC (stereo not given)"
  TGI: "> 100 µM"
- compound: "CC(C)=CCNc1ncnc2c1ncn2CCC(=O)OC(C)(C)C"
  TGI: "> 100 µM"
- compound: "CC12CN(CC[N+](C)(C)C)CC1(C)C1CCC2O1 (stereo not given)"
  TGI: "> 100 µM"
- compound: "CSc1ccc(-c2cn3ccsc3n2)c(O)c1"
  TGI: "> 100 µM"
- compound: "CCCCCCNC(=O)c1cc(NCc2cc(OC)ccc2OC)ccc1O"
  TGI: "31.7 µM"
- compound: "CCOC(=O)[C@H](CSSc1ncnc2cc[nH]c12)NC(=O)[C@@H](C)c1ccc2cc(OC)ccc2c1"
  TGI: "41 µM"
- compound: "C#CCCCC(=C)C[C@H](OCc1ccccc1)[C@H]1OC(=O)[C@@H]1C"
  TGI: "> 100 µM"
- compound: "CC1(C)CCC(=O)c2c(O)ccc(O)c21"
  TGI: "76.9 µM"

====

system: 786-0 renal; assay: NCI tumour cell line growth inhibition, 48 h
assay endpoint: log10(TGI) (log10 of the value in µM)

- compound: "Cc1cc(NC(=O)c2ccc(NS(=O)(=O)CCO)cc2N2CCC3(CC2)CC3)nc(N2CCC(F)(F)CC2)n1"
  log10(TGI): 1.49
- compound: "CC(=O)O[C@H]1CC[C@H]2[C@@H]3CCc4cc(O)c(I)cc4[C@H]3CC[C@]12C"
  log10(TGI): 1.43
- compound: "CCOC(=O)c1ccc2c(c1)nc1n2C(c2c(F)cccc2F)SC1 (stereo not drawn)"
  log10(TGI): 1.83
- compound: "CCc1ccc(C2=C/C(=C/c3ccc(Cl)cc3)C(=O)N2CCc2ccc(S(N)(=O)=O)cc2)cc1"
  log10(TGI): 0.55
- compound: "CC(C)C1C(=O)N2CCCC2C2(O)OC(NC(=O)C3C=C4c5cccc6[nH]cc(c56)CC4N(C)C3)(C(C)C)C(=O)N12 (stereo not drawn)"
  log10(TGI): 1.52
- compound: "CCCCCCCCCCCCCOC(=O)c1c(C)[nH]c(/C=C2\\N=C(c3ccc[nH]3)C=C2OC)c1C"
  log10(TGI): 1.10

====

tested on: OVCAR-3 ovarian; test: NCI tumour cell line growth inhibition, 48 h
Everything with TGI lower than 20 µM is not met; everything else, including exactly 20 µM, is met.

- compound: "COC(=O)c1cc(C#N)[nH]c1-c1ccsc1"
  assigned label: "met"
- compound: "CC[C@H](C)c1occ2c(O)c(C(=O)O)c(=O)cc-2c1C"
  assigned label: "met"
- compound: "O=C1CC2[C@@H](N3CCCC3)CCC(N1Cc1ccccc1)C2(O)O (some centres not stated)"
  assigned label: "met"
- compound: "COc1cccc(-c2nn(-c3ccccc3)cc2-c2ccnc(NCCNS(=O)(=O)c3ccc(C(F)(F)F)cc3)c2)c1"
  assigned label: "not met"
- compound: "COC(=O)c1cc(NC2OCC(OC(C)=O)C(OC(C)=O)C2OC(C)=O)nc(SC)c1C(=O)OC (configuration not stated)"
  assigned label: "met"
- compound: "O=c1[nH]cnc2c(C3OC(CO)C(O)C3O)[nH]nc12 (configuration not stated)"
  assigned label: "met"
- compound: "CO/C(=N/N1CC1C(F)(F)F)c1ccncc1 (configuration not stated)"
  assigned label: "met"
- compound: "O=C(CCl)N1CCCCC1C1(c2cc3ccccc3[nH]2)OCCO1 (configuration not stated)"
  assigned label: "not met"
- compound: "CCCCCCCC[N+](C)(C)Cc1ccc(C[N+](C)(C)CCCCCCCC)cc1"
  assigned label: "met"
- compound: "CCCSc1cc(Cl)c(C)cc1S(=O)(=O)n1cc[nH]c1=O"
  assigned label: "met"
- compound: "CCOC(=O)CSc1nc2ccccc2c(=O)n1N"
  assigned label: "met"
- compound: "Cn1c(=O)n(-c2c3ccccc3c(Cl)c3ccccc23)n(C(C)(C)C)c1=O"
  assigned label: "met"
- compound: "CC(C)(C)CN1[C@@H]2CCCC[C@H]2N(CC(C)(C)C)P1(=O)Cc1ccccc1"
  assigned label: "met"
- compound: "CN1C(=O)n2c(nc3ccccc32)C(N=[N+]=[N-])(N=[N+]=[N-])C1=O (configuration not stated)"
  assigned label: "met"
- compound: "CCN1C(C)=NC2C(=O)c3ccccc3C(=O)C21 (configuration not stated)"
  assigned label: "met"
- compound: "CCCCCCN(CCCCCC)C(=N)c1ccnc2ccccc12"
  assigned label: "met"
- compound: "COC(=O)[C@H](CCSC)NC(=O)c1ccc(CNC(=O)/C=C/c2cccc(Oc3ccccc3)c2)cc1"
  assigned label: "met"
- compound: "CC1CC(N)=Nc2ccccc2N1Cc1ccccc1 (configuration not stated)"
  assigned label: "met"
- compound: "Cc1cc(N(CCOS(C)(=O)=O)CCOS(C)(=O)=O)ccc1C=Nc1ccc(-c2csc(-c3ccccc3)n2)c(Cl)c1"
  assigned label: "met"
- compound: "Cc1cc(C)c2c(=O)cc(-c3ccc(Cl)cc3)[nH]c2n1"
  assigned label: "met"
- compound: "O=c1oc2ccc(Cl)cc2c(=O)n1-c1ccc(Cl)cc1F"
  assigned label: "not met"
- compound: "CC1=CC2=C(OCO1)C(=O)c1ccccc1C2=O"
  assigned label: "not met"
